Test system: Zymoseptoria tritici
Assay Method Text: Test C: wheat leaf blotch control on wheat seedlings
Type: in vivo
Condition Summary: 250 ppm; wheat seedlings; 100 = 100% disease control, 0 = no control
Measured Attribute: Test C disease control rating (%)
Write it as a number; the unit % goes unstated.

Q: # return recorded Test C disease control rating for input COc1ccnc(C(=O)N[C@@H](C)C(=O)OC(C)c2ccccc2-c2ccccc2)c1O (single isomer, unassigned) [Compound 1]
Ans: 81

Q: # return recorded Test C disease control rating for input COc1ccnc(C(=O)NC(C)C(=O)OC(C)c2cccc(-n3ccc(C(F)(F)F)n3)c2)c1OC(C)=O (mixture of isomers)
Ans: 81

Q: # return recorded Test C disease control rating for input COc1ccnc(C(=O)N[C@@H](C)C(=O)OC(C)c2ccc(-n3ccc(C(F)(F)F)n3)cc2Cc2ccccc2)c1OC(C)=O (stereo partly drawn)
Ans: 82

Data credit: patent US20230131966A1
